- SYSTEM NAME: kappa opioid receptor (OPRK1) (Homo sapiens (Human), UniProt P41145)
- Sequence (P41145 whole entry): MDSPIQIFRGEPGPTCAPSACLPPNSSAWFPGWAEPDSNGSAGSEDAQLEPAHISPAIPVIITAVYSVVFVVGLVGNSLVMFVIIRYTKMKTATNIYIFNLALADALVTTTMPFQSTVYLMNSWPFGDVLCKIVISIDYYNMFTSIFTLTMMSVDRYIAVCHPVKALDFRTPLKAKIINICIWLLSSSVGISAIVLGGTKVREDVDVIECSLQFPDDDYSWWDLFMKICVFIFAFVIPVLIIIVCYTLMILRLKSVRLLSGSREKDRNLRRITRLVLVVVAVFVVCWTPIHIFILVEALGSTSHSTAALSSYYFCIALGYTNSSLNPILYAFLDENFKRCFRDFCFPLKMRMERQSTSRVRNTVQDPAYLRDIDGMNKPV
- ASSAY NOTES: OPRK1 antagonist assay (b-arrestin-2-TEV / b-lactamase reporter cell line, EC80 U-50488 challenge)
- Assay type: cell-based
- CONDITION LABEL: read-out: IC50 nM (% inhib if other than 50%); antagonist mode vs EC80 U-50488; NA = not active at concentrations up to 10 μM

[
  {
    "MOLECULE": "CO[C@H]1CN(c2nc3ccccc3cc2-c2cnc(C)cn2)CC[C@H]1NC1CCCCC1",
    "RESULT UNIT": "nM",
    "IC50": 40
  },
  {
    "MOLECULE": "COC(=O)c1cc(Br)cnc1N1CCC(NC2CCC[C@H]2O)CC1 (some centres unmarked)",
    "RESULT UNIT": "nM",
    "IC50": 765
  },
  {
    "MOLECULE": "COC(=O)c1cc(Br)cnc1N1CCC(N[C@@H]2CCCCC[C@H]2O)CC1",
    "RESULT UNIT": "nM",
    "IC50": 473
  },
  {
    "MOLECULE": "CO[C@H]1CN(c2nc3cc(F)c(C)cc3cc2-c2nc(C)no2)CC[C@H]1NC1CCCCC1",
    "RESULT UNIT": "nM",
    "IC50": 54
  },
  {
    "MOLECULE": "COC1CN(c2nc3ccccc3cc2-c2ncco2)CCC1NC1CCCCC1 (centres unmarked)",
    "RESULT UNIT": "nM",
    "IC50": 70
  },
  {
    "MOLECULE": "CC(=O)c1cc(C)cnc1N1CC[C@@H](NC2CCCCC2)[C@H](O)C1",
    "RESULT UNIT": "nM",
    "IC50": 14000
  },
  {
    "MOLECULE": "CO[C@H]1CN(c2nc3cc(Cl)ccc3cc2-c2nc(C)no2)CC[C@H]1NC1CCCCC1",
    "RESULT UNIT": "nM",
    "IC50": 12
  },
  {
    "MOLECULE": "Cc1noc(-c2cc3ccccc3nc2N2CCC(NC3CCOC3)CC2)n1 (centres unmarked)",
    "RESULT UNIT": "nM",
    "IC50": 20
  }
]
